Form field: Protection (one value per entry).
Test system: Rattus norvegicus
Test: Percent protection from gastric damage in rats relative to vehicle control following intraperitoneal administration of 20 mg/Kg
Assay type: functional, Stomach
ATTRIBUTE MEASURED: Protection (%)

1) Cc1ccc(-c2cc(=O)c3ccccc3o2)cc1 ... 68
2) CCCCC[C@H](O)/C=C/[C@H]1[C@H](O)CC(=O)[C@@H]1C/C=C\CCCC(=O)O [DINOPROSTONE] ... 82
3) O=c1cc(-c2ccccc2)oc2c(O)cccc12 ... 46
4) O=c1cc(-c2ccc(O)cc2)oc2ccccc12 ... 63
5) COc1ccc2c(=O)cc(-c3ccccc3)oc2c1 [7-METHOXYFLAVONE] ... 89
6) COc1ccc2c(=O)cc(-c3cccc(C(F)(F)F)c3)oc2c1 ... 67
7) COc1ccc2c(=O)cc(-c3ccccc3Cl)oc2c1 ... 80
8) COc1cccc2oc(-c3ccc(C)cc3)cc(=O)c12 ... 93
9) O=c1cc(-c2cccc(O)c2)oc2ccccc12 ... 71
10) Cc1ccc2c(=O)cc(-c3ccccc3)oc2c1 [7-METHYLFLAVONE] ... 90
11) O=c1cc(-c2ccccc2)oc2ccc(O)cc12 [6-HYDROXYFLAVONE] ... 57
12) COc1ccc2c(=O)cc(-c3ccc(F)cc3)oc2c1 ... 67
13) CCOc1cccc2oc(-c3ccccc3)cc(=O)c12 ... 36
14) COc1cccc(-c2cc(=O)c3ccccc3o2)c1 ... 48
15) COc1cccc2oc(-c3cccc(C(F)(F)F)c3)cc(=O)c12 ... 90
16) COc1ccc(-c2cc(=O)c3c(OC)cccc3o2)cc1 ... 33
17) CCOc1ccc2c(=O)cc(-c3ccccc3)oc2c1 ... 87
18) COc1cccc2oc(-c3ccc([N+](=O)[O-])cc3)cc(=O)c12 ... 52
19) COc1ccc2oc(-c3ccccc3)cc(=O)c2c1 [6-METHOXYFLAVONE] ... 29
20) O=c1cc(-c2ccccc2)oc2ccccc12 [FLAVONE] ... 93
21) Cc1cccc2oc(-c3ccccc3)cc(=O)c12 ... 52
22) O=c1cc(-c2ccccc2)oc2cc(O)ccc12 [7-HYDROXYFLAVONE] ... 75
23) COc1cccc2oc(-c3ccccc3)cc(=O)c12 ... 97
24) CCCCOc1cccc2oc(-c3ccccc3)cc(=O)c12 ... 75
25) O=c1cc(-c2ccccc2)oc2cccc(O)c12 [5-HYDROXYFLAVONE] ... 58
26) COc1ccccc1-c1cc(=O)c2ccccc2o1 ... 66
27) O=c1cc(-c2ccccc2O)oc2ccccc12 ... 78
28) COc1ccc(-c2cc(=O)c3ccccc3o2)cc1 [4'-METHOXYFLAVONE] ... 21
29) COc1cccc2c(=O)cc(-c3ccccc3)oc12 [8-METHOXYFLAVONE] ... 53
30) COc1cccc2oc(-c3ccccc3Cl)cc(=O)c12 ... 89
31) C=CCOc1cccc2oc(-c3ccccc3)cc(=O)c12 ... 57
32) COc1c(-c2ccccc2)oc2ccccc2c1=O ... 41
33) COc1cccc2oc(-c3ccc(C(F)(F)F)cc3)cc(=O)c12 ... 65
34) COc1cccc2oc(-c3ccc(Cl)cc3)cc(=O)c12 ... 94
35) CN/C(=N\CCSCc1nc[nH]c1C)NC#N [CIMETIDINE] ... 14
36) O=c1c(O)c(-c2ccccc2)oc2ccccc12 [FLAVONOL] ... 47
37) Cc1ccccc1-c1cc(=O)c2ccccc2o1 ... 92
38) COc1cccc2oc(-c3ccc(F)cc3)cc(=O)c12 ... 97
